Recorded Repulsion index 30 mg deposition, one value per entry.
System: Aedes albopictus
Assay: Evaluation of the repellent and/or attractant effect in a tunnel olfactometer
Format: in vivo
Settings: 30 mg deposition; negative = attractant
Please reply with the bare figure in % and do not write the unit itself.

Known results for molecules:
| Molecule | System Under Test | Repulsion index 30 mg deposition, % |
| --- | --- | --- |
| CCCCCCCC(C)Oc1ccc2c(=O)ccoc2c1 (racemic) | Aedes albopictus | −27.1 |
| CCN(CC)C(=O)c1cccc(C)c1 [DEET, reference compound] | Aedes albopictus | 59.1 |
| C=CC(O)CCCCC (centres unmarked) [Octen-3-ol, octen-3-ol, reference compound] | Aedes albopictus | −61.6 |
| CCCC(C)Oc1ccc2c(=O)ccoc2c1 (racemic) | Aedes albopictus | −28.7 |

Field: next molecule
Name the reported Repulsion index 30 mg deposition value associated with the molecule CCC(C)OC(=O)N1CCCCC1CCO (centres unmarked) [Picaridin, reference compound]
59.7
